Test system: Enterococcus faecalis ATCC29212
Experimental details: MIC determination in broth microdilution assay
Type: cell-based
Recorded conditions: D: Enterococcus faecalis ATCC29212; MH-broth microdilution
Measured metric: MIC
Units required after the number.

Lookup: Query (compound): `Cc1cc(C)cc(-c2ccc(OCC[N+](C)(C)C)c(/C=C/C(=O)c3ccccc3N)c2)c1.[I-]` ; field requested: MIC
Found: 4.7 µM

Lookup: State the recorded MIC for this entry: `C=CC(C)(C)c1cc(/C=C/C(=O)c2ccc(O)cc2)c(OC)cc1O`
Found: 37.5 µM

Lookup: Return reported MIC; argument: `COc1ccc(C(=O)/C=C/c2cc(-c3cc(C)cc(C)c3)ccc2OCC[N+](C)(C)C)c(C[N+](C)(C)C)c1.[I-].[I-]`
Found: 150 µM

Lookup: Item `COc1ccc(C(=O)/C=C/c2cc(-c3ccccc3OC)ccc2N2CCN(C)CC2)c(F)c1` has what recorded MIC?
Found: 18.8 µM

Lookup: Quick one: MIC for `COc1ccc(C(=O)/C=C/c2cc(-c3cc(C)cc(C)c3)ccc2OCCN(C)C)c(Cl)c1` ?
Found: 9.4 µM

Lookup: Can you look up the measured MIC of `COc1ccc(C(=O)/C=C/c2cc(-c3ccccc3OC)ccc2N2CC[N+](C)(C)CC2)c(F)c1` for me?
Found: 18.8 µM

Lookup: Fill blank: measured MIC of the compound `CCCCN(CCCC)c1ccc(/C=C/C(=O)c2cccc(C[N+](C)(C)C)c2)cc1` is ____.
Found: 18.8 µM

Lookup: Please report the recorded MIC for `Cc1cc(C)cc(-c2ccc(OCCN(C)C)c(/C=C/C(=O)c3ccc(N)cc3)c2)c1` .
Found: 18.8 µM

* * *

System: Streptococcus pneumoniae #998 (clinical isolate)
Experimental details: MIC determination in broth microdilution assay
Type: cell-based
Recorded conditions: F: Streptococcus pneumoniae #998 clinical isolate; MH-broth microdilution
Measured metric: log10 of MIC (log10 of the value in µM)
Values are log10 of MIC in µM.

Lookup: Would you kindly share the measured log10 of MIC for Cc1cc(C)cc(-c2ccc(OCCN(C)C)c(/C=C/C(=O)c3ccc(N)cc3)c2)c1 [SM008] ?
Found: 1.27

Lookup: Value lookup for log10 of MIC; key = CN(C)CCOc1ccc(-c2ccccc2)cc1/C=C/C(=O)c1cccc(CN(C)C)c1 [SM012]
Found: 1.27

Lookup: Give the measured log10 of MIC of COc1ccc(C(=O)/C=C/c2cc(-c3ccccc3OC)ccc2N2CC[N+](C)(C)CC2)c(F)c1 [D-004] .
Found: 1.57

Lookup: Which log10 of MIC value belongs to Cc1cc(C)cc(-c2ccc(OCCN(C)C)c(/C=C/C(=O)c3ccccc3N)c2)c1 [SM009] ?
Found: 1.27

Lookup: Quick one: log10 of MIC of C=CC(C)(C)c1cc(/C=C/C(=O)c2ccc(O)cc2)c(OC)cc1O [LicA, Licochalcone A] ?
Found: 1.88

Lookup: Could you tell me which log10 of MIC is on file for COc1ccc(C(=O)/C=C/c2cc(-c3cc(C)cc(C)c3)ccc2OCC[N+](C)(C)C)c(Cl)c1.[I-] [D-001] ?
Found: 1.27

Lookup: log10 of MIC for COc1ccc(C(=O)/C=C/c2cc(-c3cc(C)cc(C)c3)ccc2OCC[N+](C)(C)C)c(C[N+](C)(C)C)c1.[I-].[I-] [D-007] ?
Found: 1.88

Lookup: Reported log10 of MIC, compound CCCCN(CCCC)c1ccc(/C=C/C(=O)c2cccc(C[N+](C)(C)C)c2)cc1 [D-005] : ____
Found: 1.57

Lookup: // log10 of MIC lookup, key: Cc1cc(C)cc(-c2ccc(OCC[N+](C)(C)C)c(/C=C/C(=O)c3ccccc3N)c2)c1.[I-] [D-003]
Found: 1.27

Lookup: If you can, please state the reported log10 of MIC value of COc1ccc(C(=O)/C=C/c2cc(-c3ccccc3OC)ccc2N2CCN(C)CC2)c(F)c1 [SM010] .
Found: 1.57

Lookup: For the compound Cc1cc(C)cc(-c2ccc(OCC[N+](C)(C)C)c(/C=C/C(=O)c3ccc(N)cc3)c2)c1 [D-002] , what log10 of MIC is on record?
Found: 1.27

Lookup: Can you look up the measured log10 of MIC of COc1ccc(C(=O)/C=C/c2cc(-c3cc(C)cc(C)c3)ccc2OCCN(C)C)c(CN(C)C)c1 [SM013] for me?
Found: 0.67

Lookup: Bench note: what log10 of MIC did C[N+](C)(C)CCOc1ccc(-c2ccccc2)cc1/C=C/C(=O)c1cccc(C[N+](C)(C)C)c1.[I-].[I-] [D-006] show?
Found: 2.18

Lookup: What does the data say about its log10 of MIC? Entry: COc1ccc(C(=O)/C=C/c2cc(-c3cc(C)cc(C)c3)ccc2OCCN(C)C)c(Cl)c1 [SM007]
Found: 1.27

Lookup: Reported log10 of MIC for CCCCN(CCCC)c1ccc(/C=C/C(=O)c2cccc(CN(C)C)c2)cc1 [SM011] : what is it?
Found: 1.27
